Test system: 156681-154-R-J1-PDC complex spheroid viability;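 note: spheroids exposed to the agents for seven days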
Experiment: Anticancer human tumor 156681-154-R-J1-PDC patient-derived melanoma cell line growth inhibition [CLK]; active = viability on the fitted dose curve at most 10% of control; inactive = the rest
Details: second compound 1 µM; first compound 0.0316 µM
Give your call using only these classes: Y for active, N for inactive

# example entries with known answers
COc1c(OCCCN2CCOCC2)ccc2c3n(c(=NC(=O)c4cnc(N)nc4)nc12)CCN3 + CNC(=O)c1ccc(Nc2nc(OC3CCCC3)c3c(-c4ccc5nc(C)oc5c4)c[nH]c3n2)c(OC)c1 = N
Cn1ncnc1[C@H]1c2n[nH]c(=O)c3cc(F)cc(c23)N[C@@H]1c1ccc(F)cc1 + CN1CCN(c2cc(C(=O)Nc3cc4cc(-c5cnn(C)c5)ccc4cn3)ccn2)CC1 = Y

Enquiry: For O=c1[nH]cc(F)c(=O)[nH]1 + CNC(=O)c1ccc(Nc2nc(OC3CCCC3)c3c(-c4ccc5nc(C)oc5c4)c[nH]c3n2)c(OC)c1 , what call appears in the results of this test?
Return: N

Enquiry: For CC1(C)CCC(CN2CCN(c3ccc(C(=O)NS(=O)(=O)c4ccc(NCC5CCOCC5)c([N+](=O)[O-])c4)c(Oc4cnc5[nH]ccc5c4)c3)CC2)=C(c2ccc(Cl)cc2)C1 + CN1CCN(c2cc(C(=O)Nc3cc4cc(-c5cnn(C)c5)ccc4cn3)ccn2)CC1 , what call appears in the results of this test?
Return: Y

Enquiry: For C=CC(=O)N1CCN(c2nc(=O)n(-c3c(C)ccnc3C(C)C)c3nc(-c4c(O)cccc4F)c(F)cc23)C(C)C1 (configuration not stated) + CN1CCN(c2cc(C(=O)Nc3cc4cc(-c5cnn(C)c5)ccc4cn3)ccn2)CC1 , what call appears in the results of this test?
Return: Y

These data points were gathered from PubChem BioAssay AID2060627.
